# experimental-target: HLA-B*0702 (human)
# protocol-notes: inhibition of 125I probe peptide, purified HLA
Kindly supply the reported IC50 values for the records listed here.
Write the number in nM without appending the unit.

May I ask what IC50 has been recorded for FPQHLFGYSI [CEA.58.F1I10] ? 229

Likewise for FPQQHTQVL [CEA.632.F1, 9 AA] ? 0.9

Another: FPAYSGREI [CEA.92.F1] 2.1

// query: FPGLSAGATI [CEA.680.F1, 10 AA] 212

Could you do the same for FPVSPRLQL [CEA.363.F1] , please? 0.7

Same question for FPGVNLSL [CEA.428.F1] please. 19

What would you report for FPDAPTISPI [CEA.236.F1I10] ? 183

Another binder: FPQQHTQI [CEA.632.F1, 8 AA] 220
